Kindly supply the reported change in vivo at 5 mg/kg values for the records listed here.
- System: mouse model of generalised seizure
- assay.comment: mini-MEST (maximal electroshock seizure threshold test, minimal sample sizes) in the mouse
- experimental.parameters: Mus musculus, ip, 0.25 h, read-out: % change from vehicle, 5 mg/kg i.p., 15 min post dose; change in CC50
One number for each entry, in %.

Example entries and their recorded answers appear below.
C=C(C)[C@@H]1CCC(C)=C[C@H]1c1c(O)cc(-c2cnn(CC(C)O)c2)cc1O (stereo partly shown) [Compound 22]    25
C=C(C)[C@@H]1CCC(C)=C[C@H]1c1c(O)cc(-c2cnn(CCN3CCOCC3)c2)cc1O [Compound 13]    6
C=C(C)[C@@H]1CCC(C)=C[C@H]1c1c(O)cc(-c2cn(C)cn2)cc1O [Compound 28]    11

Kindly review the next compound as well.
Query block: // output change in vivo at 5 mg/kg; input C=C(C)[C@@H]1CCC(C)=C[C@H]1c1c(O)cc(-c2cn(C)nn2)cc1O [Compound 4] ; system mouse model of generalised seizure
Result block: 26

----------
Kindly supply the reported CC50 +/− SEM values for the records listed here.
- System: mouse model of generalised seizure
- assay.comment: mini-MEST (maximal electroshock seizure threshold test, minimal sample sizes) in the mouse
- experimental.parameters: 50 mg/kg i.p., test 30 min post dose
Give bare numbers, in mA.

CC1=C[C@@H](c2c(O)cc(-c3cnn(C)c3)cc2O)[C@H](C(C)C)CC1    70.5
C=C(C)[C@@H]1CCC(C)=C[C@H]1c1c(O)cc(N(C)c2cccnc2)cc1O    61.5
C=C(C)[C@@H]1CCC(C)=C[C@H]1c1c(O)cc(-n2cnc(C)n2)cc1O    75.0

I would be grateful if you could provide CC50 +/− SEM for each of the following entries.
1. C=C(C)[C@@H]1CCC(C)=C[C@H]1c1c(O)cc(-c2cn(C)nc2C)cc1O
2. C=C(C)[C@@H]1CCC(C)=C[C@H]1c1c(O)cc(-c2ncn(C)n2)cc1O
3. C=C(C)[C@@H]1CCC(C)=C[C@H]1c1c(O)cc(-c2ccn(C)c(=O)c2)cc1O

Result block:
62.5
53.5
67.5

I would be grateful if you could provide CC50 +/− SEM for each of the following entries.
1. C=C(C)[C@@H]1CCC(C)=C[C@H]1c1c(O)cc(-c2cnn(CC(C)(C)O)c2)cc1O
2. C=C(C)[C@@H]1CCC(C)=C[C@H]1c1c(O)cc(-c2cn(C)cn2)cc1O

Result block:
1: 119.5; 2: 35.5

----------
- System: mouse model of generalised seizure
- assay.comment: mini-MEST (maximal electroshock seizure threshold test, minimal sample sizes) in the mouse
- experimental.parameters: Mus musculus, ip, 0.25 h, read-out: % change from vehicle, 5 mg/kg i.p., 15 min post dose; change in CC50
measurement.name: change in vivo at 5 mg/kg (%)
Give bare numbers, in %.

Example entries and their recorded answers appear below.
C=C(C)[C@@H]1CCC(C)=C[C@H]1c1c(O)cc(-c2cnn(CCO)c2)cc1O [Compound 2]    30
C=C(C)[C@@H]1CCC(C)=C[C@H]1c1c(O)cc(-c2ccc(OC)nc2)cc1O [Compound 12]    -6
C=C(C)[C@@H]1CCC(C)=C[C@H]1c1c(O)cc(-c2cn(C)nc2C)cc1O [Compound 3]    10

Kindly review the next molecule as well.
Query block: Complete the entry with change in vivo at 5 mg/kg for CC1=C[C@@H](c2c(O)cc(-c3cnn(C)c3)cc2O)[C@H](C(C)C)CC1 [Compound 36]
Result block: 14

----------
- Tested on: mouse model of generalised seizure
- assay.comment: mini-MEST (maximal electroshock seizure threshold test, minimal sample sizes) in the mouse
- experimental.parameters: 5 mg/kg i.p., test 15 min post dose
Rule: CC50 +/− SEM below 30 mA gives True. Equal to or above 30 mA gives False.

C=C(C)[C@@H]1CCC(C)=C[C@H]1c1c(O)cc(-c2cnn(CC(C)O)c2)cc1O (some centres unmarked)    False
C=C(C)[C@@H]1CCC(C)=C[C@H]1c1c(O)cc(-c2cn(C)nc2C)cc1O    True

Query block: Report whether reported CC50 +/− SEM is lower than 30 mA (strictly) for C=C(C)[C@@H]1CCC(C)=C[C@H]1c1c(O)cc(-c2ccc(OC)nc2)cc1O
Result block: True

Query block: Report whether reported CC50 +/− SEM is lower than 30 mA (strictly) for C=C(C)[C@@H]1CCC(C)=C[C@H]1c1c(O)cc(-c2cnn(CCO)c2)cc1O
Result block: False

Query block: Report whether reported CC50 +/− SEM is lower than 30 mA (strictly) for C=C(C)[C@@H]1CCC(C)=C[C@H]1c1c(O)cc(-c2cn(C)nn2)cc1O
Result block: True

Query block: Report whether reported CC50 +/− SEM is lower than 30 mA (strictly) for C=C(C)[C@@H]1CCC(C)=C[C@H]1c1c(O)cc(-c2cn(C)cn2)cc1O
Result block: True

Query block: Report whether reported CC50 +/− SEM is lower than 30 mA (strictly) for C=C(C)[C@@H]1CCC(C)=C[C@H]1c1c(O)cc(-c2cnn(CCN3CCOCC3)c2)cc1O
Result block: True

Query block: Report whether reported CC50 +/− SEM is lower than 30 mA (strictly) for CC1=C[C@@H](c2c(O)cc(-c3cnn(C)c3)cc2O)[C@H](C(C)C)CC1
Result block: True

----------
- Test system: mouse model of generalised seizure
- assay.comment: mini-MEST (maximal electroshock seizure threshold test, minimal sample sizes) in the mouse
- experimental.parameters: 50 mg/kg i.p., test 30 min post dose
Rule: CC50 +/− SEM below 70 mA gives t. Equal to or above 70 mA gives f.

Please review the following examples before continuing.
C=C(C)[C@@H]1CCC(C)=C[C@H]1c1c(O)cc(-c2cnn(CCO)c2C)cc1O [Compound 5]    t
C=C(C)[C@@H]1CCC(C)=C[C@H]1c1c(O)cc(-c2cnn(CC(C)O)c2)cc1O (some centres unmarked) [Compound 22]    t
C=C(C)[C@@H]1CCC(C)=C[C@H]1c1c(O)cc(-c2cnn(C3COC3)c2)cc1O [Compound 38]    f
C=C(C)[C@@H]1CCC(C)=C[C@H]1c1c(O)cc(-c2cnn(CCN(C)C)c2)cc1O [Compound 6]    t
C=C(C)[C@@H]1CCC(C)=C[C@H]1c1c(O)cc(-c2cccnc2OC)cc1O [Compound 43]    t

Query block: Report whether reported CC50 +/− SEM is lower than 70 mA (strictly) for C=C(C)[C@@H]1CCC(C)=C[C@H]1c1c(O)cc(-c2cnn(CCN3CCOCC3)c2)cc1O [Compound 13]
Result block: t

Query block: Report whether reported CC50 +/− SEM is lower than 70 mA (strictly) for C=C(C)[C@@H]1CCC(C)=C[C@H]1c1c(O)cc(-c2ccc(OC)nc2)cc1O [Compound 12]
Result block: f
